The reported measurements were obtained from ChEMBL document CHEMBL4196005.

- TARGET: High affinity 3',5'-cyclic-AMP phosphodiesterase 7A (Homo sapiens, UniProt Q13946)
- Sequence (Q13946 whole entry): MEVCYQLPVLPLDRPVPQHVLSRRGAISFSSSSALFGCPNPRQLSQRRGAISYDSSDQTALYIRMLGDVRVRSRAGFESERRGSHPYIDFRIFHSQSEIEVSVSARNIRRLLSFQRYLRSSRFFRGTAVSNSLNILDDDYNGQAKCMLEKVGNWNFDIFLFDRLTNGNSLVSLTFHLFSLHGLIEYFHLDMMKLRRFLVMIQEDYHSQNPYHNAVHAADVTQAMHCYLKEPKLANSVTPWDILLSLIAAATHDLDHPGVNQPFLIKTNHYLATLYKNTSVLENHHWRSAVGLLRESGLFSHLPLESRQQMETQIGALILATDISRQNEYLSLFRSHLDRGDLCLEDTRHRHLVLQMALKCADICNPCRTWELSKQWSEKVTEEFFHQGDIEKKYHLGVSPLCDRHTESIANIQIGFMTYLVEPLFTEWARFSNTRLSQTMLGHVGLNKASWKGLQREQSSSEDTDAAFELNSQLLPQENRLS
- PROCEDURE TEXT: Inhibition of PDE7A1 (unknown origin) expressed in baculovirus infected insect cells using [3H]cAMP as substrate preincubated for 5 mins followed by substrate addition and measured after 15 mins by scintillation proximity assay
OUTCOME MEASURE: pIC50
One number for each entry, as −log10 of the molar value.

Short answer for COc1ccc(C2=NN(C3CCCC3)C(=O)C3CC=CCC23)cc1Cl (stereo unspecified) : pIC50 was 7.74

---

- TARGET: High affinity 3',5'-cyclic-AMP phosphodiesterase 7A (Homo sapiens)
- PROCEDURE TEXT: Inhibition of human C-terminal FLAG-tagged PDE7A expressed in baculovirus infected Sf9 cells using [3H]-cAMP as substrate after 15 mins by scintillation proximity assay
OUTCOME MEASURE: IC50 (nM)
Numbers only, in nM.

Short answer for COc1ccc(-c2cc3c(n2-c2ccc(S(=O)(=O)Nc4nc(C)cc(C)n4)cc2)CCC(N2CCN(C)CC2)C3)cc1C (stereo unspecified) : IC50 was 14

---

Exercise: state measured pIC50 for each of the compounds provided.
- TARGET: High affinity 3',5'-cyclic-AMP phosphodiesterase 7A (Homo sapiens, UniProt Q13946)
- PROCEDURE TEXT: Inhibition of human GST-tagged PDE7A expressed in baculovirus infected Sf9 insect cells using cAMP as substrate after 10 mins by PDE-Glo Phosphodiesterase Assay
One number for each entry, as −log10 of the molar value.

Solved cases (3 shown):
# MOLECULE, pIC50
records = [
    ("Cn1c(=O)c2c(nc(NCCc3ccccc3)n2CCCC(=O)N/N=C/c2ccccc2O)n(C)c1=O", 5.14),
    ("COc1ccc(/C=N/NC(=O)CCCn2c(NCc3ccco3)nc3c2c(=O)n(C)c(=O)n3C)c(O)c1", 4.16),
    ("CCOc1nc2c(c(=O)n(C)c(=O)n2C)n1CCCC(=O)N/N=C/c1ccccc1O", 4.56),
]

Take each entry in turn and give its pIC50.
1. Cn1c(=O)c2c(nc(NCc3ccccn3)n2CCCC(=O)N/N=C/c2ccc(O)c(O)c2O)n(C)c1=O
2. CCOc1nc2c(c(=O)n(C)c(=O)n2C)n1CCCC(=O)N/N=C/c1ccccc1
3. Cn1c(=O)c2c(nc(NCCc3ccccc3)n2CCCC(=O)N/N=C/c2ccc(O)c(O)c2O)n(C)c1=O
4. Cn1c(=O)c2c(nc(NCc3ccco3)n2CCCC(=O)N/N=C/c2ccc(O)cc2O)n(C)c1=O
5. CCCOc1nc2c(c(=O)n(C)c(=O)n2C)n1CCCC(=O)N/N=C/c1ccccc1
6. COc1ccc(/C=N/NC(=O)CCCn2c(NCc3ccccc3)nc3c2c(=O)n(C)c(=O)n3C)c(O)c1
7. CCOc1nc2c(c(=O)n(C)c(=O)n2C)n1CCCC(=O)N/N=C/c1ccc(O)cc1O
8. Cn1c(=O)c2c(nc(NCc3ccco3)n2CCCC(=O)N/N=C/c2ccc(O)c(O)c2O)n(C)c1=O

Response:
[5.02, 4.31, 5.49, 4.98, 4.03, 4.28, 3.85, 5.42]

---

- TARGET: UniProtKB Q13946
- PROCEDURE TEXT: Inhibition of human recombinant FLAG-tagged PDE7A expressed in African green monkey COS7 cells using [3H]cAMP as substrate after 30 mins by scintillation counting analysis
- Format: cell-based
OUTCOME MEASURE: pIC50
Numbers only, as −log10 of the molar value.

Short answer for CCOc1cc2cc(CO)c(CO)c(-c3ccnc(-n4nc(-c5cccnc5)c5ccccc5c4=O)c3)c2cc1OCC : pIC50 was 5.77

---

- TARGET: 3',5'-cyclic-AMP phosphodiesterase 4D (Homo sapiens, UniProt Q08499)
- Sequence (Q08499 whole entry): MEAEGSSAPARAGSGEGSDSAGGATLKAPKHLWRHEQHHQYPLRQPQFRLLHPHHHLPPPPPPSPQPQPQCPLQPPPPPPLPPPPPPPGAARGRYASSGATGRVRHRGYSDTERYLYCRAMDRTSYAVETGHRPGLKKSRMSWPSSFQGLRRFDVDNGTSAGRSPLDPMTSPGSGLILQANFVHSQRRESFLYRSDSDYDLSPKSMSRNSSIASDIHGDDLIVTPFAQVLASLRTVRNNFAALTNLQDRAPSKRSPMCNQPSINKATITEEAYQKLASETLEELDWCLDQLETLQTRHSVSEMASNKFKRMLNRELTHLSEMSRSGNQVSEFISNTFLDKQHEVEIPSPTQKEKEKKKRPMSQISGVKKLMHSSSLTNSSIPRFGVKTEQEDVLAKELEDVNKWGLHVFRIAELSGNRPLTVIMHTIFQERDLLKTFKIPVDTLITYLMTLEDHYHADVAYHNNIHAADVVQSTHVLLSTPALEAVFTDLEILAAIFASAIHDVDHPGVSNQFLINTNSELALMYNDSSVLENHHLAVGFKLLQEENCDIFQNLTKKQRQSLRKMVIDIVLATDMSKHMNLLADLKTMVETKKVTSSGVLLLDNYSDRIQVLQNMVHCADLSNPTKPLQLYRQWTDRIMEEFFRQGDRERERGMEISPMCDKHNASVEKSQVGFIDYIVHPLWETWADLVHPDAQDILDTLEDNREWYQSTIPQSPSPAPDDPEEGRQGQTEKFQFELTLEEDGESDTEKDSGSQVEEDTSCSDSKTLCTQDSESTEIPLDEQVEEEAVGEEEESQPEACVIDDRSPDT
OUTCOME MEASURE: pIC50
Numbers only, as −log10 of the molar value.

Short answer for COc1ccc(C2=NN(C3CCCC3)C(=O)C3CC=CCC23)cc1Cl (stereo unspecified) : pIC50 was 9.11

---

- TARGET: 3',5'-cyclic-AMP phosphodiesterase 4B (Homo sapiens)
- Sequence (Q07343 whole entry): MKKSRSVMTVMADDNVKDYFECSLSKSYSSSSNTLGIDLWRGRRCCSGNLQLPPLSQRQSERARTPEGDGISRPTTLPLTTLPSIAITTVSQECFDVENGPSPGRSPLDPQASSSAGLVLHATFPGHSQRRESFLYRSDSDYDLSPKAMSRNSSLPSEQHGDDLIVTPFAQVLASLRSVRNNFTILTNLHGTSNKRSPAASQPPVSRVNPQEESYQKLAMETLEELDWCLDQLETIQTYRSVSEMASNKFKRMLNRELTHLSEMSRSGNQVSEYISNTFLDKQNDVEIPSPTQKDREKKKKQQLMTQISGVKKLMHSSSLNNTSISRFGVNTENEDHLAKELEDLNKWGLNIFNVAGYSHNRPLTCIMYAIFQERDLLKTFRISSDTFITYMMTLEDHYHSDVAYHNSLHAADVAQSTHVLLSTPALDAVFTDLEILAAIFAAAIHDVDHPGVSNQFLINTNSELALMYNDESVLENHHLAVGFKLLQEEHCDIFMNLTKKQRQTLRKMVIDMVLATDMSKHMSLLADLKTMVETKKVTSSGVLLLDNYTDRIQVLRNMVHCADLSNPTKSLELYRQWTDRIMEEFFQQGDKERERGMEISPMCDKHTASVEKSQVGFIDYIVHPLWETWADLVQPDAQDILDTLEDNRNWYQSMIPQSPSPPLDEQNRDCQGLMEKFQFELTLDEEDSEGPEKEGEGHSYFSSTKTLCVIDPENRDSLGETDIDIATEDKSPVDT
OUTCOME MEASURE: IC50 (µM)
Give bare numbers, in µM.

Solved cases (2 shown):
# MOLECULE, TARGET, IC50 [µM]
measured = [
    ("CCCOc1nc2c(c(=O)n(C)c(=O)n2C)n1CCCC(=O)N/N=C/c1ccccc1", "3',5'-cyclic-AMP phosphodiesterase 4B (Homo sapiens)", 51.8),
    ("Cn1c(=O)c2c(nc(NCCc3ccccc3)n2CCCC(=O)N/N=C/c2ccccc2O)n(C)c1=O", "3',5'-cyclic-AMP phosphodiesterase 4B (Homo sapiens)", 26.9),
]

Next:
Short answer for Cn1c(=O)c2c(nc(NCCc3ccccc3)n2CCCC(=O)N/N=C/c2ccc(O)c(O)c2O)n(C)c1=O : IC50 was 1.4

---

- TARGET: 3',5'-cyclic-AMP phosphodiesterase 4B (Homo sapiens)
IC50 strictly less than 30 µM = TRUE. Otherwise FALSE.

# COMPOUND, CLASS LABEL
records = [
    ("COc1ccc(/C=N/NC(=O)CCCn2c(NCc3ccco3)nc3c2c(=O)n(C)c(=O)n3C)c(O)c1", "FALSE"),
    ("Cn1c(=O)c2nc[nH]c2n(C)c1=O.O [THEOPHYLLINE]", "FALSE"),
    ("CCOc1nc2c(c(=O)n(C)c(=O)n2C)n1CCCC(=O)N/N=C/c1ccccc1OC", "FALSE"),
    ("Cn1c(=O)c2c(ncn2CCCC(=O)N/N=C/c2ccccc2O)n(C)c1=O", "FALSE"),
    ("Cn1c(=O)c2c(nc(NCc3ccco3)n2CCCC(=O)N/N=C/c2ccc(O)c(O)c2O)n(C)c1=O", "TRUE"),
]

Query: # TODO verify IC50 < 30 µM strictly for this compound: CCCOc1nc2c(c(=O)n(C)c(=O)n2C)n1CCCC(=O)N/N=C/c1ccccc1O
Response: FALSE

Query: # TODO verify IC50 < 30 µM strictly for this compound: Cn1c(=O)c2c(nc(NCc3ccccn3)n2CCCC(=O)N/N=C/c2ccccc2O)n(C)c1=O
Response: TRUE

Query: # TODO verify IC50 < 30 µM strictly for this compound: Cn1c(=O)c2c(nc(NCc3ccco3)n2CCCC(=O)N/N=C/c2ccccc2O)n(C)c1=O
Response: TRUE

Query: # TODO verify IC50 < 30 µM strictly for this compound: COc1ccc(/C=N/NC(=O)CCCn2c(NCc3ccccc3)nc3c2c(=O)n(C)c(=O)n3C)c(O)c1
Response: FALSE

---

Exercise: state measured pIC50 for each of the compounds provided.
- TARGET: High affinity 3',5'-cyclic-AMP phosphodiesterase 7A (Homo sapiens, UniProt Q13946)
- PROCEDURE TEXT: Inhibition of human GST-tagged PDE7A expressed in baculovirus infected Sf9 insect cells using cAMP as substrate after 10 mins by PDE-Glo Phosphodiesterase Assay
One number for each entry, as −log10 of the molar value.

Solved cases (3 shown):
# COMPOUND, pIC50
rows = [
    ("CCCOc1nc2c(c(=O)n(C)c(=O)n2C)n1CCCC(=O)N/N=C/c1ccc(OC)cc1O", 4.05),
    ("Cn1c(=O)c2c(nc(NCc3ccccc3)n2CCCC(=O)N/N=C/c2ccc(O)c(O)c2O)n(C)c1=O", 5.09),
    ("Cn1c(=O)c2c(nc(NCc3ccccc3)n2CCCC(=O)N/N=C/c2ccccc2O)n(C)c1=O", 4.47),
]

Take each entry in turn and give its pIC50.
1. CCCOc1nc2c(c(=O)n(C)c(=O)n2C)n1CCCC(=O)N/N=C/c1ccccc1O
2. CCCOc1nc2c(c(=O)n(C)c(=O)n2C)n1CCCC(=O)N/N=C/c1ccc(O)cc1O
3. Cc1ccc([N+](=O)[O-])cc1S(=O)(=O)N(C)C
4. CC(C)Cn1c(=O)n(C)c(=O)c2[nH]cnc21 [ISOBUTYLMETHYLXANTHINE]
5. Cn1c(=O)c2c(nc(NCc3ccccc3)n2CCCC(=O)N/N=C/c2ccc(O)cc2O)n(C)c1=O

Response:
1: 4.93; 2: 4.25; 3: 5.68; 4: 4.07; 5: 3.94
